Target: UniProtKB P28335
Sequence (P28335 33-458): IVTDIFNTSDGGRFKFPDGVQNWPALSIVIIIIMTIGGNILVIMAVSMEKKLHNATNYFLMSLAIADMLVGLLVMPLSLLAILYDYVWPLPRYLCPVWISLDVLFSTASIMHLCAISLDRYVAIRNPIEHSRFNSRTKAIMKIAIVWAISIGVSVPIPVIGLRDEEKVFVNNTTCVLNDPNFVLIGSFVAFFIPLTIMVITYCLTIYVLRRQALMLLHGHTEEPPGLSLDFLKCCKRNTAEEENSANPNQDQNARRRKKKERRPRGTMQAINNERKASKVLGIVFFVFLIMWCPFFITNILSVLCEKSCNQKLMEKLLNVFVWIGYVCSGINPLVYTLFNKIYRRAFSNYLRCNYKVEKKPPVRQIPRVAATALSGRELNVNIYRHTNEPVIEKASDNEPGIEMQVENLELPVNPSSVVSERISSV
Assay: 5HT2C receptor binding test procedure ([125I]DOI displacement, CHO cell membranes)
Conditions: reference compounds; [125I]DOI binding, h5HT2C in CHO membranes; read-out: Ki value and 95% confidence interval
measuredParameter: Ki (nM)
Report the figure in nM without appending any unit label.

# Ki lookup, item CSc1ccc2c(c1)C(N1CCN(C)CC1)Cc1ccccc1S2 (stereo not shown) [Methiothepin, reference compound]
4.6

Recorded values, source patent US20080009480A1.
